Biological target: T1, human Y2 receptor (human, UniProt P49146 1-381)
T1 construct: whole, on cells; used as membrane fraction of hY2R/CHO cells; also called human NPY2R; hY2R
T1 sequence (looked up): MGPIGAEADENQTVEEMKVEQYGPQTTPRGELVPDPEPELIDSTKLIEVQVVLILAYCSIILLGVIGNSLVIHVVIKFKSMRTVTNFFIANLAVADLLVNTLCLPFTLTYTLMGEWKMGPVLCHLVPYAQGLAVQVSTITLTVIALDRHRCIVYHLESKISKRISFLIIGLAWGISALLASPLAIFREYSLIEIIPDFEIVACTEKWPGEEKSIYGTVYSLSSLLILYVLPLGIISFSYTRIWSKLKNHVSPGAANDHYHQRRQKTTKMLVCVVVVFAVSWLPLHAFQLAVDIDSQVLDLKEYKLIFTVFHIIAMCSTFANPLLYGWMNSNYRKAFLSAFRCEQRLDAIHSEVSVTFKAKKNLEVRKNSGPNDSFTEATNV
Test: RBA: [125I]-PYY displacement, hY2R/CHO membranes
Positions of bridges follow the written chain, without caps; N, C: chain ends. Non-standard residues stand in square brackets, D forms with d. No end group written: not given here. Cha = N[C@@H](CC1CCCCC1)C(=O)O; 4Amb = NCc1ccc(C(=O)O)cc1; Aib = CC(C)(N)C(=O)O
OBSERVATION TYPE: IC50 Ratio (vs PYY(3-36))

[
  {
    "BINDER": "[4Amb]RAYIN[Aib]ITRQRY-NH2 (N-terminus assumed; SMILES CC[C@H](C)[C@H](NC(=O)[C@H](Cc1ccc(O)cc1)NC(=O)[C@H](C)NC(=O)[C@H](CCCNC(=N)N)NC(=O)c1ccc(CN)cc1)C(=O)N[C@@H](CC(N)=O)C(=O)NC(C)(C)C(=O)N[C@H](C(=O)N[C@H](C(=O)N[C@@H](CCCNC(=N)N)C(=O)N[C@@H](CCC(N)=O)C(=O)N[C@@H](CCCNC(=N)N)C(=O)N[C@@H](Cc1ccc(O)cc1)C(N)=O)[C@@H](C)O)[C@@H](C)CC, also called compound No. 47) [4-Aminomethylbenzoyl-[Ala26, Ile28,31, Aib30]-PYY(25-36)]",
    "OBSERVATION TYPE": "IC50 Ratio (vs PYY(3-36))",
    "ENDPOINT RESULT": "49 ratio"
  },
  {
    "BINDER": "Ac-N[dP]RH[Cha][Cha]NL[Aib]TRQR[Cha]-NH2 (SMILES CC(=O)N[C@@H](CC(N)=O)C(=O)N1CCC[C@@H]1C(=O)N[C@@H](CCCNC(=N)N)C(=O)N[C@@H](Cc1c[nH]cn1)C(=O)N[C@@H](CC1CCCCC1)C(=O)N[C@@H](CC1CCCCC1)C(=O)N[C@@H](CC(N)=O)C(=O)N[C@@H](CC(C)C)C(=O)NC(C)(C)C(=O)N[C@H](C(=O)N[C@@H](CCCNC(=N)N)C(=O)N[C@@H](CCC(N)=O)C(=O)N[C@@H](CCCNC(=N)N)C(=O)N[C@@H](CC1CCCCC1)C(N)=O)[C@@H](C)O, also called compound No. 115) [Ac-[Asn23, D-Pro24, Cha27,28,36, Aib31]-PYY(23-36)]",
    "OBSERVATION TYPE": "IC50 Ratio (vs PYY(3-36))",
    "ENDPOINT RESULT": "2.4 ratio"
  },
  {
    "BINDER": "Ac-GLRH[Cha][Cha]NL[Aib]TRQR[Cha]-NH2 (also: Gly1-Leu2 amide bond replaced by (E)-CH=CH alkene, -CONH- bond between Gly23 and Leu24 is substituted by (E) type alkene; also called compound No. 122) [Ac-[Gly23-ψ[(E)-CH═CH]-Leu24, Cha27,28,36, Aib31]-PYY(23-36)]",
    "OBSERVATION TYPE": "IC50 Ratio (vs PYY(3-36))",
    "ENDPOINT RESULT": "17 ratio"
  },
  {
    "BINDER": "[4Amb]RAYINLISRQRY-NH2 (N-terminus assumed; SMILES CC[C@H](C)[C@H](NC(=O)[C@H](Cc1ccc(O)cc1)NC(=O)[C@H](C)NC(=O)[C@H](CCCNC(=N)N)NC(=O)c1ccc(CN)cc1)C(=O)N[C@@H](CC(N)=O)C(=O)N[C@@H](CC(C)C)C(=O)N[C@H](C(=O)N[C@@H](CO)C(=O)N[C@@H](CCCNC(=N)N)C(=O)N[C@@H](CCC(N)=O)C(=O)N[C@@H](CCCNC(=N)N)C(=O)N[C@@H](Cc1ccc(O)cc1)C(N)=O)[C@@H](C)CC, also called compound No. 60) [4-Aminomethylbenzoyl-[Ala26, Ile28,31, Ser32]-PYY(25-36)]",
    "OBSERVATION TYPE": "IC50 Ratio (vs PYY(3-36))",
    "ENDPOINT RESULT": "180 ratio"
  },
  {
    "BINDER": "[4Amb]RAYINYITRQRY-NH2 (N-terminus assumed; SMILES CC[C@H](C)[C@H](NC(=O)[C@H](Cc1ccc(O)cc1)NC(=O)[C@H](C)NC(=O)[C@H](CCCNC(=N)N)NC(=O)c1ccc(CN)cc1)C(=O)N[C@@H](CC(N)=O)C(=O)N[C@@H](Cc1ccc(O)cc1)C(=O)N[C@H](C(=O)N[C@H](C(=O)N[C@@H](CCCNC(=N)N)C(=O)N[C@@H](CCC(N)=O)C(=O)N[C@@H](CCCNC(=N)N)C(=O)N[C@@H](Cc1ccc(O)cc1)C(N)=O)[C@@H](C)O)[C@@H](C)CC, also called compound No. 57) [4-Aminomethylbenzoyl-[Ala26, Ile28,31, Tyr30]-PYY(25-36)]",
    "OBSERVATION TYPE": "IC50 Ratio (vs PYY(3-36))",
    "ENDPOINT RESULT": "2.8 ratio"
  },
  {
    "BINDER": "[4Amb]RHEINLKTRQRY-NH2 (lactam 4-8; N-terminus assumed; SMILES CC[C@H](C)[C@@H]1NC(=O)[C@@H](NC(=O)[C@H](Cc2c[nH]cn2)NC(=O)[C@H](CCCNC(=N)N)NC(=O)c2ccc(CN)cc2)CCC(=O)NCCCC[C@@H](C(=O)N[C@H](C(=O)N[C@@H](CCCNC(=N)N)C(=O)N[C@@H](CCC(N)=O)C(=O)N[C@@H](CCCNC(=N)N)C(=O)N[C@@H](Cc2ccc(O)cc2)C(N)=O)[C@@H](C)O)NC(=O)[C@H](CC(C)C)NC(=O)[C@H](CC(N)=O)NC1=O, also called compound No. 25) [cyclo(27-31)-4-Aminomethylbenzoyl-[Glu27, Ile28, Lys31]-PYY(25-36)]",
    "OBSERVATION TYPE": "IC50 Ratio (vs PYY(3-36))",
    "ENDPOINT RESULT": "30 ratio"
  },
  {
    "BINDER": "[4Amb][dR]AYINLITRQRY-NH2 (N-terminus assumed; SMILES CC[C@H](C)[C@H](NC(=O)[C@H](Cc1ccc(O)cc1)NC(=O)[C@H](C)NC(=O)[C@@H](CCCNC(=N)N)NC(=O)c1ccc(CN)cc1)C(=O)N[C@@H](CC(N)=O)C(=O)N[C@@H](CC(C)C)C(=O)N[C@H](C(=O)N[C@H](C(=O)N[C@@H](CCCNC(=N)N)C(=O)N[C@@H](CCC(N)=O)C(=O)N[C@@H](CCCNC(=N)N)C(=O)N[C@@H](Cc1ccc(O)cc1)C(N)=O)[C@@H](C)O)[C@@H](C)CC, also called compound No. 9) [4-Aminomethylbenzoyl-[D-Arg25, Ala26, Ile28,31]-PYY(25-36)]",
    "OBSERVATION TYPE": "IC50 Ratio (vs PYY(3-36))",
    "ENDPOINT RESULT": "92 ratio"
  },
  {
    "BINDER": "[4Amb]RHYKNLIERQRY-NH2 (lactam 5-9; N-terminus assumed; SMILES CC[C@H](C)[C@@H]1NC(=O)[C@H](CC(C)C)NC(=O)[C@H](CC(N)=O)NC(=O)[C@@H](NC(=O)[C@H](Cc2ccc(O)cc2)NC(=O)[C@H](Cc2c[nH]cn2)NC(=O)[C@H](CCCNC(=N)N)NC(=O)c2ccc(CN)cc2)CCCCNC(=O)CC[C@@H](C(=O)N[C@@H](CCCNC(=N)N)C(=O)N[C@@H](CCC(N)=O)C(=O)N[C@@H](CCCNC(=N)N)C(=O)N[C@@H](Cc2ccc(O)cc2)C(N)=O)NC1=O, also called compound No. 26) [cyclo(28-32)-4-Aminomethylbenzoyl-[Lys28, Ile31, Glu32]-PYY(25-36)]",
    "OBSERVATION TYPE": "IC50 Ratio (vs PYY(3-36))",
    "ENDPOINT RESULT": "18 ratio"
  }
]
